Origin of measurements: patent US10184116B2

assay.explanation: Luminescence activity of ZZ-fused WNanoKAZ mutants in crude enzyme solution (Example 10)
Type: biochemical
conditions.used: ZZ-fused, pCold-ZZ-P- vector in E. coli, coelenterazine substrate, KAZ = 1.0
observable: Relative luminescence activity (Imax)
When you answer, write just the number.

Would you mind telling me what Relative luminescence activity (Imax) value was observed for WNanoKAZ-E115P: WNanoKAZ with substitution of proline for glutamic acid at position 115; SEQ ID NO: 10 (protein) FTLADFVGDWQQTAGYNQDQVLEQGGLSSLFQALGVSVTPIQKVVLSGENGLKADIHVIIPYEGLSGFQMGLIEMIFKVVYPVDDHHFKVILHYGTLVIDGVTPNMIDYFGRPYPGIAVFDGKKITVTGTLWNGNKIIDERLINPDGSLLFRVTINGVTGWRLCERILA ?
31

New cases:
Which Relative luminescence activity (Imax) reading was recorded for the molecule WNanoKAZ: chimeric protein: positions 1-82 of native KAZ and 83-169 of nanoKAZ; SEQ ID NO: 6; I90V, P115E, Q124K, Y138I, N166R (protein, chimeric protein: positions 1-82 of native KAZ and 83-169 of nanoKAZ; I90V, P115E, Q124K, Y138I, N166R) FTLADFVGDWQQTAGYNQDQVLEQGGLSSLFQALGVSVTPIQKVVLSGENGLKADIHVIIPYEGLSGFQMGLIEMIFKVVYPVDDHHFKVILHYGTLVIDGVTPNMIDYFGRPYEGIAVFDGKKITVTGTLWNGNKIIDERLINPDGSLLFRVTINGVTGWRLCERILA ?
64
